Target: T1, mouse tenascin-C rCd4-His-FBG (rat; mouse, UniProt P05540 207-392, limits assumed)
T1 construct: domain: domains 3 and 4; C-terminal FBG fusion; biotinylated in the ELISA screen; also called Mu TNC; mouse TNC rCd4-His-FBG; not shown: 6His tag
T1 sequence (chain (part 1 of 2)): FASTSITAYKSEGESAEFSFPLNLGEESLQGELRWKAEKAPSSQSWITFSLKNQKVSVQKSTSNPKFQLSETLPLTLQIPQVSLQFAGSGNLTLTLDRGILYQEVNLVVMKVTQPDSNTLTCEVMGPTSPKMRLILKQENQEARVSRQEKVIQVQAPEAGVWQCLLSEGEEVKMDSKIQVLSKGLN
T1 sequence (chain (part 2 of 2)): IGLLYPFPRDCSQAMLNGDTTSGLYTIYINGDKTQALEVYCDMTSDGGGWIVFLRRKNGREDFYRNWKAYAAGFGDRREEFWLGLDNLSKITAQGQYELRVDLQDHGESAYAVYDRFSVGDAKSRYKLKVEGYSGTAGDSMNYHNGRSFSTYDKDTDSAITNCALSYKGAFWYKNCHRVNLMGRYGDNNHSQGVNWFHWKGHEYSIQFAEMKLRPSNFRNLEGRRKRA
Assay: SPR, captured Fab, 25 C
Below: a set of entries, each annotated with reported koff.
The figure you give is taken to be in s⁻¹; do not add the unit.

- Fab F3 (Fab, V domains shown, monomeric Fab) VH: EVQLLESGGGLVQPGGSLRLSCAASGFTFSSYGMHWVRQAPGKGLEWVAVISYDGSNKYYADSVKGRFTISRGNSKNTLYLQMNSLKAEDTAVYYCAREGYDQLFSAESNAFDIWGQGTLVTVSS VL: NFMLAQPHSVSESPGKTVTISCTRSSGSIASYFVQWFQQRPGSAPTAVIYEDNQRPSGVPDRFSGSIDSSSNSASLTISGLKTEDEADYYCQSYDSSNWVFGGGTKVTVLG: 0.00642
- Fab B12 (Fab, V domains shown, monomeric Fab) VH: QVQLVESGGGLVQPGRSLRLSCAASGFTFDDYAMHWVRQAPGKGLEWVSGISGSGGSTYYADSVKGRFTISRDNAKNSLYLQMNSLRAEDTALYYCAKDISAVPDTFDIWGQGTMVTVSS VL: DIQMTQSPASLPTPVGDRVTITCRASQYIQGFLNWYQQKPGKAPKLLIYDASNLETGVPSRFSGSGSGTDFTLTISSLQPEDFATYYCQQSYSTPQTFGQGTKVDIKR: 0.0675
- Fab D8 (Fab, V domains shown, monomeric Fab) VH: EVQLVQSGAEVKKPGASVKVSCKASGYTFTSYGISWVRQAPGQGLEWMGWISAYNGNTNYAQKLQGRVTMTTDTSTSTAYMELRSLRSDDTAVYYCARNQDSSSDYWGQGTLVTVSS VL: DIQMTQSPASLPTSVGDRVTITCRASQYIQGFLNWYQQKPGKAPKLLIYDASNLETGVPSRFSGSGSGTDFTLTISSLQPEDFATYYCQQSYSTLQTFGQGTKVDIKR: 0.0716

Please find the next binder below.
Entry under review: Fab 2A5 (Fab, V domains shown, monomeric Fab) VH: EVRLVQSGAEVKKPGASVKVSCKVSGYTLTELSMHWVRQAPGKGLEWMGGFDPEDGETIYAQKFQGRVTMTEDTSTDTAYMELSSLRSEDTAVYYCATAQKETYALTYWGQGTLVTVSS VL: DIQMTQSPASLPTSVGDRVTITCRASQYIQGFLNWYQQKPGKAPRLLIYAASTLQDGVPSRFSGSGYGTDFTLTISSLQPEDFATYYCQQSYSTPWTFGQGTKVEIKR . Reported koff? 0.0347
